Tested on: HL-60(TB) leukemia
Measurement description: NCI-60 one-dose screen, 48 h (100 = growth as untreated, 0 = no growth, -100 = all killed)
Measurement conditions: 10 µM unless noted
This is part of a sample that, as a whole, favours compounds with a hit. Of some 83,000 tested, about 20% had one in any assay.
Would you mind telling me the reported growth of each entry?
Numbers only, in %.

{"Compound": "CN(C)S(=O)(=O)c1cccc(C(=O)Nc2nc(-c3ccc(F)c(F)c3)cs2)c1", "growth (%)": 61.1}

Please state growth for every compound in the list that follows.
1. CC(=O)c1ccc2oc(=O)n(Cc3ccc(C#N)cc3)c(=O)c2c1
2. COc1ccc(/C=N\N2CCOCC2)cc1OC1CCCC1
3. CC(=O)Nc1scc[n+]1Cc1ccccc1
4. Nc1cccc2cccc(O)c12
5. CN1CCN(Cc2ccc(NC(=O)c3cncc(C#Cc4c(N)ncc5ccc(C#N)cc45)c3)cc2C(F)(F)F)CC1

stdout:
[109, 104, 55.3, 82.9, 9.71]
